# EC50 per entry
- assay-system: human MC4R (Homo sapiens, UniProt P32245)
- Construct: expressed in transfected cells
- Sequence (P32245 whole entry): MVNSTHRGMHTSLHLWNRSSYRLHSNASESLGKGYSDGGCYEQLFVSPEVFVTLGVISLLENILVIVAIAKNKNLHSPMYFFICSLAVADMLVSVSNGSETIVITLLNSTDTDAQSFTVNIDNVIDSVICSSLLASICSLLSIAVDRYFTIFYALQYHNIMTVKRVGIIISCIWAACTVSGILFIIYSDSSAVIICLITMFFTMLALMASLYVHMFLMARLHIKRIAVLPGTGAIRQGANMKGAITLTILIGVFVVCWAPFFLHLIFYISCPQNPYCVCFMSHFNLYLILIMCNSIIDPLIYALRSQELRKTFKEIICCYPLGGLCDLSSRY
- protocol-text: Functional cAMP assay (CisBio HTRF) in BHK cells expressing human MC4R
- Assay type: cell-based
- condition-details: BHK cells expressing human MC4R; '>' = highest dose used with no response; read-out: MC4R cAMP EC50
Positions of bridges follow the written chain, without caps; N, C: chain ends. Non-standard residues stand in square brackets, D forms with d. Residues, ends and D or L forms follow the SMILES beside them. 2Nal = N[C@@H](Cc1ccc2ccccc2c1)C(=O)O; Hyp = O=C(O)[C@@H]1C[C@@H](O)CN1; Pen = CC(C)(S)[C@H](N)C(=O)O

compound	assay-system	EC50
C[C@@H]1NC(=O)[C@@H]2CSSC[C@H](NC(=O)[C@H](Cc3ccc4ccccc4c3)NC(=O)[C@H](CCCNC(=N)N)NC(=O)[C@@H](Cc3ccccc3)NC(=O)[C@H](Cc3c[nH]cn3)NC1=O)C(=O)N[C@@H](C)C(=O)N[C@@H](CCCCN)C(=O)N[C@@H](CCCCN)C(=O)N[C@@H](CCCCN)C(=O)N[C@@H](Cc1c[nH]c3ccccc13)C(=O)N2 [Chem. 79] (cyclo([2Nal]CAKKKWCAH[dF]R); disulfide 2-8)	human MC4R (Homo sapiens, UniProt P32245)	0.02 nM
C[C@@H]1NC(=O)[C@@H]2CSSC[C@H](NC(=O)[C@H](Cc3c[nH]c4ccccc34)NC(=O)[C@H](CCCCN)NC(=O)[C@H](CCCCN)NC(=O)[C@H](CCCCN)NC1=O)C(=O)N[C@@H](CCCCN)C(=O)N[C@@H](Cc1c[nH]cn1)C(=O)N[C@H](Cc1ccccc1)C(=O)N[C@@H](Cc1c[nH]cn1)C(=O)N[C@@H](Cc1c[nH]c3ccccc13)C(=O)N2 [Chem. 76] (cyclo(AKKKWCKH[dF]HWC); disulfide 6-12)	human MC4R (Homo sapiens, UniProt P32245)	0.16 nM
C[C@@H]1NC(=O)[C@@H]2CSSC[C@H](NC(=O)[C@H](Cc3c[nH]c4ccccc34)NC(=O)[C@H](CCCNC(=N)N)NC(=O)[C@@H](Cc3ccccc3)NC(=O)[C@H](Cc3c[nH]cn3)NC1=O)C(=O)N1CCC[C@H]1C(=O)N1CCC[C@H]1C(=O)N[C@@H](CCC(=O)O)C(=O)N[C@@H](CCCNC(=N)N)C(=O)N[C@@H](Cc1c[nH]c3ccccc13)C(=O)N2 [Chem. 112] (cyclo(AH[dF]RWCPPERWC); disulfide 6-12)	human MC4R (Homo sapiens, UniProt P32245)	0.19 nM
C[C@@H]1NC(=O)[C@@H]2CSSC[C@H](NC(=O)[C@H](Cc3c[nH]c4ccccc34)NC(=O)[C@H](CCCCN)NC(=O)[C@H](CCCCN)NC(=O)[C@H](CCCCN)NC1=O)C(=O)N1C[C@H](O)C[C@H]1C(=O)N[C@@H](Cc1c[nH]cn1)C(=O)N[C@H](Cc1ccccc1)C(=O)N[C@@H](Cc1c[nH]cn1)C(=O)N[C@@H](Cc1c[nH]c3ccccc13)C(=O)N2 [Chem. 70] (cyclo(AKKKWC[Hyp]H[dF]HWC); disulfide 6-12)	human MC4R (Homo sapiens, UniProt P32245)	0.38 nM
C[C@@H]1NC(=O)[C@H]2NC(=O)[C@H](Cc3c[nH]c4ccccc34)NC(=O)[C@H](Cc3c[nH]cn3)NC(=O)[C@@H](Cc3ccccc3)NC(=O)[C@H](Cc3c[nH]cn3)NC(=O)[C@@H]3CCCN3C(=O)[C@H](CSSC2(C)C)NC(=O)[C@H](CCCNC(=N)N)NC(=O)[C@H](CCCCN)NC(=O)[C@H](CCCCN)NC(=O)[C@H](CCCCN)NC1=O [Chem. 93] (cyclo(AKKKRCPH[dF]HW[Pen]); disulfide 6-12)	human MC4R (Homo sapiens, UniProt P32245)	0.04 nM
C[C@@H]1NC(=O)[C@@H]2CSSC[C@H](NC(=O)[C@H](Cc3c[nH]c4ccccc34)NC(=O)[C@H](CCCCN)NC(=O)[C@@H](Cc3ccccc3)NC(=O)[C@H](Cc3c[nH]cn3)NC1=O)C(=O)N[C@@H](C)C(=O)N[C@@H](Cc1c[nH]cn1)C(=O)N[C@H](Cc1ccccc1)C(=O)N[C@@H](CCCCN)C(=O)N[C@@H](Cc1c[nH]c3ccccc13)C(=O)N2 [Chem. 15] (cyclo(AH[dF]KWCAH[dF]KWC); disulfide 6-12)	human MC4R (Homo sapiens, UniProt P32245)	0.09 nM
C[C@@H]1NC(=O)[C@@H]2CSSC[C@H](NC(=O)[C@H](Cc3c[nH]c4ccccc34)NC(=O)[C@H](CCCNC(=N)N)NC(=O)[C@@H](Cc3ccccc3)NC(=O)[C@H](Cc3c[nH]cn3)NC1=O)C(=O)N[C@@H](CCCCN)C(=O)N[C@@H](CCCCN)C(=O)N[C@@H](CCCCN)C(=O)N[C@@H](CCCNC(=N)N)C(=O)N2 [Chem. 101] (cyclo(AH[dF]RWCKKKRC); disulfide 6-11)	human MC4R (Homo sapiens, UniProt P32245)	0.04 nM
